Data origin: the RNAGym collection of RNA variant scans (doi:10.1002/anie.201605470)

B1: Osa-1-4 twister ribozyme (parent)
chain: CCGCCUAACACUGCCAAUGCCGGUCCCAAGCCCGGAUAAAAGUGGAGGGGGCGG

Variants of: B1
Assay: self-cleavage, relative activity (ratio to wild type); higher = more cleavage; co-transcriptional
Quick rule for you: self-cleavage at 0.07 or higher means fulfilled, lower means not fulfilled.

Query string: State whether the measured self-cleavage reaches 0.07, counting equality as reaching it, for G30U G44A
Result string: not fulfilled

Query string: Similarly, G42U G48A ?
Result string: not fulfilled

Query string: Continue with C31A G13A
Result string: not fulfilled

Query string: Now consider A29G G50C .
Result string: fulfilled

Query string: Do the same for C14U G44C please
Result string: fulfilled

Query string: Lookup A8G G42U
Result string: not fulfilled

Query string: One more variant: A29G C26G
Result string: fulfilled

Query string: Same question for A8G C15U please.
Result string: fulfilled

Query string: Record: C31A G35C
Result string: not fulfilled

Query string: Try the variant C32U G35C
Result string: not fulfilled

Query string: Now the same for C52G U37A
Result string: fulfilled

Query string: Ok, now C31U C32G
Result string: fulfilled

Query string: Thanks! And C21U C26G ?
Result string: fulfilled

Query string: Would you mind doing A29C U37A as well?
Result string: not fulfilled

Query string: Also A40C C32U ?
Result string: not fulfilled

Query string: A17G G51C ?
Result string: fulfilled

Query string: Try C33A G34U next.
Result string: not fulfilled

Query string: Another variant to check: C14U G30U
Result string: not fulfilled

Query string: How about C11U G51C ?
Result string: not fulfilled

Query string: // repeat for A41G U43C and report
Result string: fulfilled

Query string: Quick one: C9A G22C
Result string: not fulfilled

Query string: And what about the variant G23C U24C ?
Result string: not fulfilled

Query string: Note, next up: G51C U12A
Result string: not fulfilled

Query string: Note, next up: C20U C25G
Result string: fulfilled

Query string: Try the variant C20G G42C
Result string: not fulfilled

Query string: And the next one, A17G G44A ?
Result string: fulfilled

Query string: Ok, now C15G U12G
Result string: fulfilled

Query string: Now try C25A G35A .
Result string: fulfilled

Query string: Also C33G G45A , if possible.
Result string: not fulfilled

Query string: And for A29C C31U ?
Result string: not fulfilled

Query string: // next record A16C C25A
Result string: fulfilled

Query string: And then G42C G49U , what is it?
Result string: not fulfilled

Query string: Another variant to look at: C52G G34C
Result string: fulfilled

Query string: What do we get for C9G U37A ?
Result string: fulfilled

Query string: Next record, please: C20G G54A
Result string: not fulfilled

Query string: And what about the variant A17C G42A ?
Result string: fulfilled

Query string: Note, next up: A7C G48C
Result string: not fulfilled

Query string: What do you have for A38U U37C ?
Result string: fulfilled

Query string: What would you report for C31A G47A ?
Result string: not fulfilled

Query string: Another: A10C A46U
Result string: not fulfilled

Query string: Input A16C C32U
Result string: fulfilled

Query string: Entry to check: G49C U24G
Result string: not fulfilled

Query string: Param item: G44U G49U
Result string: fulfilled

Query string: Now the variant A29G C14A
Result string: not fulfilled

Query string: Queued: C20G C9U
Result string: not fulfilled

Query string: Moving on to the next variant: C31G G22C
Result string: not fulfilled

Query string: Now try C9A U43G .
Result string: fulfilled

Query string: Do the same for C26U G19C please
Result string: not fulfilled

Query string: Item: C33A G42A
Result string: not fulfilled

Query string: Further, for A46G C15U ?
Result string: not fulfilled

Query string: Then this variant: A17G C25A
Result string: fulfilled

Query string: What about this variant? A36C G22U
Result string: fulfilled

Query string: What would you report for G50A G53A ?
Result string: fulfilled

Query string: Likewise for G45U G50U ?
Result string: fulfilled

Query string: Next record, please: C27G G51U
Result string: not fulfilled

Query string: Please answer likewise for G51A U18G
Result string: fulfilled

Query string: Now try A40G C20A .
Result string: fulfilled

Query string: Further, for C33G G34A ?
Result string: not fulfilled

Query string: Further, for C20A C52A ?
Result string: fulfilled

Query string: Same thing, different variant: A36G C26U
Result string: fulfilled

Query string: Thanks! And U12C U37C ?
Result string: fulfilled
